test system: A. baumannii CDC-0033; experiment: microbe, parasite or virus in culture; format: cell-based; conditions: Acinetobacter baumannii, CDC0033, read-out: Minimum inhibitory concentration (MIC), A. baumannii CDC-0033
PROPERTY NAME: MIC

Before answering, review these 5 worked examples.
Lab note: need MIC for O=C(O)c1c(F)ccc2c1OB(O)[C@@H](NC(=O)[C@H](NC(=O)N1CCN(C3CCN(C(=O)Nc4ccc(O)c(O)c4Cl)CC3)C1=O)c1ccc(P(=O)(O)O)cc1)C2 (single isomer, unassigned) on A. baumannii CDC-0033, anyone have it?
< 1 µg/mL

I'm curious: which MIC was measured for O=C(O)c1c(F)ccc2c1OB(O)[C@@H](NC(=O)[C@H](NC(=O)N1CCN(C3CCN(Cc4ccncc4)CC3)C1=O)c1cc(F)c(O)c(O)c1Cl)C2 tested on A. baumannii CDC-0033?
2 to 4 µg/mL

Lookup: MIC / A. baumannii CDC-0033 / O=C(O)c1c(F)ccc2c1OB(O)[C@@H](NC(=O)[C@H](NC(=O)N1CCN(C3CCN(C(=O)Nc4cc(F)c(O)c(O)c4Cl)CC3)C1=O)c1ccc(P(=O)(O)O)cc1)C2 (single isomer, unassigned)
< 1 µg/mL

What measured MIC is associated with O=C(O)c1c(F)ccc2c1OB(O)[C@@H](NC(=O)[C@H](NC(=O)N1CCN(C3CCN(Cc4cccnc4)CC3)C1=O)c1cc(F)c(O)c(O)c1Cl)C2 on A. baumannii CDC-0033?
< 1 µg/mL

Lab note: need MIC with A. baumannii CDC-0033 for entry O=C(O)c1c(F)ccc2c1OB(O)[C@@H](NC(=O)[C@H](NC(=O)N1CCN(C3CCN(C(=O)c4ccc(O)c(O)c4Cl)CC3)C1=O)c1ccc(P(=O)(O)O)cc1)C2 , please look it up.
< 1 µg/mL

New cases:
Reported MIC for A. baumannii CDC-0033, given O=C(O)c1c(F)ccc2c1OB(O)[C@@H](NC(=O)[C@H](NC(=O)N1CCN(C3CCN(C(=O)Nc4cc(O)c(O)c(Cl)c4)CC3)C1=O)c1ccc(P(=O)(O)O)cc1)C2 (single isomer, unassigned) ?
2 to 4 µg/mL

---

test system: P. aeruginosa ATCC 27853; test: microbe, parasite or virus in culture; type: cell-based; details: Pseudomonas aeruginosa, ATCC27853, read-out: Minimum inhibitory concentration, P. aeruginosa ATCC 27853
Recorded MIC, one value per entry.

What measured MIC is associated with O=C(O)c1c(F)ccc2c1OB(O)[C@@H](NC(=O)[C@@H](NC(=O)N1CCN(C3CCN(C(=O)Nc4ccc(O)cc4)CC3)C1=O)c1cc(F)c(O)c(O)c1Cl)C2 (single isomer, unassigned) on P. aeruginosa ATCC 27853?
< 1 µg/mL

P. aeruginosa ATCC 27853 / MIC / O=C(NCCCN1CCN(C(=O)N[C@@H](C(=O)N[C@H]2Cc3ccc(F)c(C(=O)O)c3OB2O)c2cc(F)c(O)c(O)c2Cl)C(=O)C1=O)c1cccnc1 : value?
2 to 4 µg/mL

New cases:
Record lookup: for P. aeruginosa ATCC 27853, what MIC belongs to O=C(NCCCN1CCN(C(=O)NC(C(=O)N[C@H]2Cc3ccc(F)c(C(=O)O)c3OB2O)c2cc(F)c(O)c(O)c2Cl)C1=O)c1nccs1 (stereo partly shown) ?
2 to 4 µg/mL

For P. aeruginosa ATCC 27853, provide MIC of O=C(O)c1c(F)ccc2c1OB(O)[C@@H](NC(=O)[C@H](NC(=O)N1CCN(C3CCN(C(=O)Nc4cc(O)cc(O)c4)CC3)C1=O)c1cc(F)c(O)c(O)c1Cl)C2 please.
< 1 µg/mL

---

test system: N. gonorrhoeae WHO Q; assay: Liquid broth MIC in Fastidious broth; conditions: Neisseria gonorrhoeae, read-out: Minimum Inhibitory Concentration (MIC), N. gonorrhoeae WHO Q
PROPERTY NAME: MIC

Known results for molecules:
What reported MIC corresponds to O=C(CN1CCN(C(=O)NC(C(=O)N[C@H]2Cc3ccc(F)c(C(=O)O)c3OB2O)c2cc(F)c(O)c(O)c2Cl)C(=O)C1=O)Nc1cccc(O)c1 (stereo partly shown) [Example 231] on N. gonorrhoeae WHO Q?
16 to 32 µg/mL

API: value(readout= MIC, system= N. gonorrhoeae WHO Q, query= O=C(O)c1cccc2c1OB(O)[C@@H](NC(=O)[C@@H](NC(=O)N1CCNC1=O)c1ccc(P(=O)(O)O)cc1)C2 [Example 39] )
4 to 8 µg/mL

Give N. gonorrhoeae WHO Q MIC for O=C(O)c1cccc2c1OB(O)[C@@H](NC(=O)[C@H](NC(=O)[C@@H]1CCCN1)c1ccc(P(=O)(O)O)cc1)C2 [Example 173]
16 to 32 µg/mL

Lookup: MIC / N. gonorrhoeae WHO Q / O=C(N[C@H](C(=O)N[C@H]1Cc2cccc(C(=O)O)c2OB1O)c1ccc(P(=O)(O)O)cc1)c1ccc(C(F)(F)F)cn1 (single isomer, unassigned) [Example 192]
1 to 2 µg/mL

Could you share what MIC was measured for O=C(NCCN1CCN(C(=O)NC(C(=O)N[C@H]2Cc3ccc(F)c(C(=O)O)c3OB2O)c2cc(F)c(O)c(O)c2Cl)C(=O)C1=O)c1cccnc1 (stereo partly shown) [Example 217] , tested on N. gonorrhoeae WHO Q?
> 64 µg/mL

Further cases:
Notebook entry, N. gonorrhoeae WHO Q assay: MIC of O=C(O)c1cccc2c1OB(O)[C@@H](NC(=O)[C@@H](NC(=O)N1CCCCC1=O)c1ccc(P(=O)(O)O)cc1)C2 [Example 36] = ?
16 to 32 µg/mL

Hi! What's the reported MIC for O=C(O)c1cccc2c1OB(O)[C@@H](NC(=O)C(NC(=O)N1CCCC1=O)c1ccc(P(=O)(O)O)cc1)C2 (stereo partly shown) [Example 57] on N. gonorrhoeae WHO Q?
1 to 2 µg/mL

Can you look up MIC on N. gonorrhoeae WHO Q for CN1CCC[C@H]1C(=O)NC(C(=O)N[C@H]1Cc2cccc(C(=O)O)c2OB1O)c1ccc(P(=O)(O)O)cc1 (stereo partly shown) [Example 66] ?
16 to 32 µg/mL

---

tested on: N. gonorrhoeae CDC-0197; assay: Liquid broth MIC in Fastidious broth; settings: Neisseria gonorrhoeae, CDC0197, read-out: Minimum Inhibitory Concentration (MIC), N. gonorrhoeae CDC-0197
We begin with a simple list: items and their reported MIC.

# example entries with known answers
Field request: MIC | item: CC(C)C(=O)NC(C(=O)N[C@H]1Cc2cccc(C(=O)O)c2OB1O)c1ccc(P(=O)(O)O)cc1 (stereo partly drawn) [Example 28]
16 to 32 µg/mL

Would you mind telling me what MIC value was observed for O=C(O)c1cccc2c1OB(O)[C@@H](NC(=O)C(NC(=O)N1CCCC1=O)c1ccc(P(=O)(O)O)cc1)C2 (stereo partly drawn) [Example 57] ?
< 1 µg/mL

What value of MIC has been recorded for this entry: CS(=O)(=O)N1CCC[C@@H]1C(=O)N[C@H](C(=O)N[C@H]1Cc2cccc(C(=O)O)c2OB1O)c1ccc(P(=O)(O)O)cc1 [Example 34]
16 to 32 µg/mL

Query (compound): CCN1CCN(C(=O)NC(C(=O)N[C@H]2Cc3cccc(C(=O)O)c3OB2O)c2ccc(P(=O)(O)O)cc2)C1=O (stereo partly drawn) [Example 42] ; field requested: MIC
< 1 µg/mL

Recorded MIC for O=C(NCCN1CCN(C(=O)NC(C(=O)N[C@H]2Cc3ccc(F)c(C(=O)O)c3OB2O)c2cc(F)c(O)c(O)c2Cl)C(=O)C1=O)c1ccccc1 (stereo partly drawn) [Example 207] , please?
16 to 32 µg/mL

// switching to the query compound
Quick one: MIC of CS(=O)(=O)N1CCN(C(=O)N[C@@H](C(=O)N[C@H]2Cc3cccc(C(=O)O)c3OB2O)c2ccc(P(=O)(O)O)cc2)C1=O (single isomer, unassigned) [Example 6] ?
< 1 µg/mL

---

target: PBP3 from Escherichia coli (K-12) (Escherichia coli); assay: Bocillin-FL fluorescence polarization competition binding, E. coli PBP3
Sequence (P0AD68 1-577): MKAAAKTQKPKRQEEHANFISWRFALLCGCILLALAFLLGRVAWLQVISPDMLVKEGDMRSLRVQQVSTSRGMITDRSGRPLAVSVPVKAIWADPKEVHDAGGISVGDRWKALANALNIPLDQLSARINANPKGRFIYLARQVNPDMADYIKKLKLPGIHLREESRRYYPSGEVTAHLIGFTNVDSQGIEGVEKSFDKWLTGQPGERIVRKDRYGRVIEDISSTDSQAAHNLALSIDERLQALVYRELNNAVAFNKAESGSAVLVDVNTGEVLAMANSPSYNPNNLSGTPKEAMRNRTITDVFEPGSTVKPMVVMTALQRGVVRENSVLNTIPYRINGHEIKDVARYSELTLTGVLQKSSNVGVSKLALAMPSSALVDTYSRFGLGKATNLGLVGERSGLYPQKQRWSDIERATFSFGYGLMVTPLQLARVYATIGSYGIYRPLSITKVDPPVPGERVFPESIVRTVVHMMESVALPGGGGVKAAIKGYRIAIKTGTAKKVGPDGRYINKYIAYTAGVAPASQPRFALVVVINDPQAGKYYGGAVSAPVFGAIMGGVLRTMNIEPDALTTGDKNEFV
pEC50: −log10 of the molar value.
PROPERTY NAME: pEC50

Past entries and their recorded results:
Recorded pEC50 of O=C(O)c1c(F)ccc2c1OB(O)[C@@H](NC(=O)C(NC(=O)N1CCN(CCNC(=O)[C@@H]3CCCN3)C1=O)c1cc(F)c(O)c(O)c1Cl)C2 (stereo partly shown) [Example 248] , please.
4.30 to 5.00

Which pEC50 is reported for this compound? O=C(O)c1cccc2c1OB(O)[C@@H](NC(=O)[C@H](NC(=O)N1CCNC1=O)c1ccc(P(=O)(O)O)cc1)C2 [Example 40]
> 5.00

Then this compound:
Requested read-out: pEC50. Entry: O=C(NCCN1CCN(C(=O)NC(C(=O)N[C@H]2Cc3ccc(F)c(C(=O)O)c3OB2O)c2cc(F)c(O)c(O)c2Cl)C1=O)Nc1ccncc1 (stereo partly shown) [Example 250]
> 5.00
